molecular target: delF508-CFTR (Homo sapiens, UniProt P13569, DEL508-508); construct: endogenous in cells; host or cells: CFBE41o- human CF bronchial epithelial cells (delF508 homozygous); assay: SPQ halide-sensitive fluorescence dye assay for rescue of halide efflux (8-point concentration-response); assay type: cell-based; conditions: CFBE41o- cells, 48 h
Sequence (P13569 with tags, fused parts or gaps DEL508-508): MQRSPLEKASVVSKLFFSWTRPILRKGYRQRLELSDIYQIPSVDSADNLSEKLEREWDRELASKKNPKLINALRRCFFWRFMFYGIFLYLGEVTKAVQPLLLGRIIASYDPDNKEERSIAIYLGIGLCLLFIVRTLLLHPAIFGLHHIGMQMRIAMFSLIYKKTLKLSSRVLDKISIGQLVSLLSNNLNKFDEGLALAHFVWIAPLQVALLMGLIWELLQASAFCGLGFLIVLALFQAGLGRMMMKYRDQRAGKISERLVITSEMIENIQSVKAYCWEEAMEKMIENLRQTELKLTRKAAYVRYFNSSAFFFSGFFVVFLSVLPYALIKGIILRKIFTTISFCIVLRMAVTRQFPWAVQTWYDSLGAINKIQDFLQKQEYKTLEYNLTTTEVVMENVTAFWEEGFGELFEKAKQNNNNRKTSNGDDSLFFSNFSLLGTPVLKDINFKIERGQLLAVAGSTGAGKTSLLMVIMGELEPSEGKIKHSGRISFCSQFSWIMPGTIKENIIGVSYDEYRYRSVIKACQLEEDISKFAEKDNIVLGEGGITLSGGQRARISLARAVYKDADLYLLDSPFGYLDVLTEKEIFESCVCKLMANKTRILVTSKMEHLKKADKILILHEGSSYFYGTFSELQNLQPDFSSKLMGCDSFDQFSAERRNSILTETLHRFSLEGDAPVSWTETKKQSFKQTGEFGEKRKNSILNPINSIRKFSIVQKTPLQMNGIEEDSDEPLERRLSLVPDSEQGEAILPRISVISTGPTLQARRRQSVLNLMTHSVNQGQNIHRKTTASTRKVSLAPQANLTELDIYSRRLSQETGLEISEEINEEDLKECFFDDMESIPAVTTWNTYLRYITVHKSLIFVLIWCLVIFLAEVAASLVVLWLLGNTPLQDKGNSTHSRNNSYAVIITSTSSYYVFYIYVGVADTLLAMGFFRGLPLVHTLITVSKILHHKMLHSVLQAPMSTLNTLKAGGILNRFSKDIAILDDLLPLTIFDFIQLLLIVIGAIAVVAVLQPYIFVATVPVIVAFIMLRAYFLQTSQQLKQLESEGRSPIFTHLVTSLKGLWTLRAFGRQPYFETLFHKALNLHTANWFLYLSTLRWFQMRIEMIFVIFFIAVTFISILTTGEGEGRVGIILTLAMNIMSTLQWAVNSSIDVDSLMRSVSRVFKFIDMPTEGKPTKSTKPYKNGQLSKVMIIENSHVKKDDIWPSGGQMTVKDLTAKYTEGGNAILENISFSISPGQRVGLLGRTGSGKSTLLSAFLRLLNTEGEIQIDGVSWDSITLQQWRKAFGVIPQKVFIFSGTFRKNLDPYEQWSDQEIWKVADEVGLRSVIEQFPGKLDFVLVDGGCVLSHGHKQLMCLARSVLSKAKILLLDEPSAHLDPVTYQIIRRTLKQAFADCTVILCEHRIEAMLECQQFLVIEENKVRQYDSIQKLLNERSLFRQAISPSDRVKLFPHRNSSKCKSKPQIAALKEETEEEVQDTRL
metricName: ΔSPQ (difference between maximum and minimum SPQ values) (RFU)

Use the examples below as a reference point.
Cc1cn2c3c(=O)n(C)c(=O)n(C)c3nc2n1-c1ccc(O)cc1 :: 2100
CCCCn1c(=O)c2c(nc3n2CC(C)=NN3CCC)n(C)c1=O :: 12028
C=CCn1c(=O)c2c(nc3n(CC(C)C)c(C)c(C)n23)n(C)c1=O :: 8563

(a) CC1=NNc2nc3c(c(=O)n(Cc4cccc(C)c4)c(=O)n3C)n2C1C (stereo not drawn)
(b) C=CCn1c(=O)c2c(nc3n(CCC)c(C)cn23)n(C)c1=O
(c) Cc1cc(C)cc(-n2c(C)cn3c4c(=O)n(CCCO)c(=O)n(C)c4nc23)c1
(d) COc1ccc(CN2CCN(c3nc4c(=O)n(C)c(=O)n(C)c4[nH]3)CC2)cc1
(e) Cn1c(=O)c2c3c(cnc2n(C)c1=O)C(=O)CC(c1ccccc1)C3 (stereo not drawn)
Lookup: Write the entries in order, lowest recorded ΔSPQ (difference between maximum and minimum SPQ values) first. The response must list the labels following the requested ordering.
Found: d, a, b, e, c
(d: 800 RFU, a: 2625 RFU, b: 3801 RFU, e: 5826 RFU, c: 11432 RFU)
